Below, each entry is listed alongside its reported solubility.
assay: Water solubility by quantitative 1H-NMR in D2O, alone or with cyclodextrin; format: physicochemical; conditions: 25 °C, water, thermodynamic from solid; D2O, 298 K, compound alone, dimethyl sulfone internal standard; read-out: Water Solubility, Compound
assayMetric: solubility

COc1ccc2cc([C@H](C)C(=O)[Se][Se]C(=O)[C@@H](C)c3ccc4cc(OC)ccc4c3)ccc2c1 [II.3] = 0.605 µM
COc1ccc2c(c1)c(CC(=O)[Se]CC(=O)O)c(C)n2C(=O)c1ccc(Cl)cc1 [I.4a] = 22.4 µM
COc1ccc2c(c1)c(CC(=O)[Se][Se]C(=O)Cc1c(C)n(C(=O)c3ccc(Cl)cc3)c3ccc(OC)cc13)c(C)n2C(=O)c1ccc(Cl)cc1 [II.2] = 0.132 µM
COc1ccc2c(c1)c(CC(=O)[Se]CCC#N)c(C)n2C(=O)c1ccc(Cl)cc1 [I.4e] = 5.72 µM
COc1ccc2c(c1)c(CC(=O)[Se]CC#N)c(C)n2C(=O)c1ccc(Cl)cc1 [I.4d] = 20 µM
CC(C)Cc1ccc(C(C)C(=O)[Se][Se]C(=O)C(C)c2ccc(CC(C)C)cc2)cc1 (stereo not shown) [II.5] = 21.2 µM
COC(=O)C[Se]C(=O)Cc1c(C)n(C(=O)c2ccc(Cl)cc2)c2ccc(OC)cc12 [I.4b] = 12 µM
CC(C(=O)[Se][Se]C(=O)C(C)c1cccc(C(=O)c2ccccc2)c1)c1cccc(C(=O)c2ccccc2)c1 (stereo not shown) [II.4] = 5.57 µM
COc1ccc2cc(C(C)C(=O)[Se]CCC#N)ccc2c1 (stereo not shown) [I.3e] = 9.7 µM
CC(=O)Oc1ccccc1C(=O)[Se][Se]C(=O)c1ccccc1OC(C)=O [II.1] = 8.43 µM
